- System: SF-539 CNS
- EXPERIMENTAL_PROTOCOL: NCI-60 one-dose screen, 48 h (100 = growth as untreated, 0 = no growth, -100 = all killed)
- PROTOCOL_CONDITIONS: 10 µM unless noted
- Experimental: Cells are grown in 96 well plates and exposed to the test compound for 48 hours. Compounds are tested at a single concentration, which is 10^-5 M for most compounds. The reported endpoint is percent growth (GI% or GIPRCNT), where numbers from 0 - 100% represent growth inhibition, and numbers from -100% - 0 represent cell death. For example, a value of 40 represents 60% growth inhibition. A value of 0 means no net growth occurred over the course of the experiment. […]
This is part of a sample that, as a whole, favours compounds with a hit. Of some 83,000 tested, about 20% had one in any assay.

{"COMPOUND": "NCCCN(CCCN)CCCNCc1c2ccccc2c(CNCCCN(CCCN)CCCN)c2ccccc12", "growth, %": 91.8}
{"COMPOUND": "CN(Cc1ccccc1)c1ccc(SC#N)cc1", "growth, %": 87.7}
{"COMPOUND": "N#CC(=C1SCS1)[N+](=O)[O-]", "growth, %": 11.5}
{"COMPOUND": "CCN(CC)CCNC(Cc1ccccc1)c1ccc(OCc2ccccc2)cc1 (configuration not stated)", "growth, %": 57}
{"COMPOUND": "COc1ccc(C(OCC2OC(n3ccc(NC(=O)c4ccccc4)nc3=O)C(O)C2O)(c2ccccc2)c2ccccc2)cc1 (configuration not stated)", "growth, %": 42.9}
{"COMPOUND": "Clc1ccc(Cc2nc3ccccc3s2)cc1", "growth, %": 106}
{"COMPOUND": "O=C(O)c1cccc2cccc(-c3c4ccc(=O)c(O)c-4oc4c(O)c(O)ccc34)c12", "growth, %": 89.4}
{"COMPOUND": "O=C1C=CC(O)=CC1=P(c1ccccc1)(c1ccccc1)c1ccccc1", "growth, %": 86.9}
{"COMPOUND": "CCCCOS(=O)(=O)c1ccccc1", "growth, %": 102}
{"COMPOUND": "CC(C)=CCCC(C)C1=C(O)C(=O)C(C)=CC1=O (configuration not stated)", "growth, %": 96.3}
{"COMPOUND": "N#CCc1cccc2ccccc12", "growth, %": 101}
{"COMPOUND": "O=[N+]([O-])c1ccc(Oc2ccccc2Cl)c([N+](=O)[O-])c1", "growth, %": 94.6}
{"COMPOUND": "Cc1cc2cccnc2c2ncccc12", "growth, %": 13}
{"COMPOUND": "CC1(C)CCCC2=C1C(=O)N(SC(Cl)(Cl)Cl)C2=O", "growth, %": 95.9}
{"COMPOUND": "CCCCCCCCCCCC1=NCCCN1CCCC", "growth, %": 110}
{"COMPOUND": "O=C(CCl)N1c2ccccc2Sc2c1ccc1ccccc21", "growth, %": 84.7}
{"COMPOUND": "COC1CC(C)C(OC)c2cc(O)cc(c2O)NC(=O)/C(C)=C/C=C\\C(C)C(OC(N)=O)/C(C)=C\\C(C)C1OC (configuration not stated)", "growth, %": 6.34}
{"COMPOUND": "CC(/C=N/NC(N)=S)Cc1ccc(C(C)C)cc1 (configuration not stated)", "growth, %": 59}
{"COMPOUND": "CCCCCCCCCCCCCCCc1ccc(C(=O)C[n+]2ccccc2)cc1", "growth, %": -98.4}
{"COMPOUND": "O=C(/C(Cl)=N/O)c1ccc(-c2ccccc2)cc1", "growth, %": 96.4}
{"COMPOUND": "CCCCC(C=O)(C=C=C(C)C)CC (configuration not stated)", "growth, %": 98}
{"COMPOUND": "Cc1cc(Br)c2nsnc2c1[N+](=O)[O-]", "growth, %": 9.73}
{"COMPOUND": "CN(C)CC(C)(CN(C)C)C(=O)/C=C/c1c(Cl)cccc1Cl", "growth, %": -2.86}
{"COMPOUND": "OC(CSc1ccccc1)CN1CCN(c2ccc(Cl)cc2)CC1 (configuration not stated)", "growth, %": 96.8}
{"COMPOUND": "Cc1nnc(N/N=C/c2ccc([N+](=O)[O-])o2)[nH]c1=O", "growth, %": -8.83}
{"COMPOUND": "CN=C(N)N/N=C(\\c1ccccc1)c1ccc(Br)cc1", "growth, %": -19.2}
{"COMPOUND": "O=C1C=C(Cl)C(=O)c2ccccc21", "growth, %": 109}
{"COMPOUND": "[Cl-].[Rh+3].c1ccc(-c2ccnc3c2ccc2c(-c4ccccc4)ccnc23)cc1.c1ccc(-c2ccnc3c2ccc2c(-c4ccccc4)ccnc23)cc1.c1ccc(-c2ccnc3c2ccc2c(-c4ccccc4)ccnc23)cc1", "growth, %": -5.79}
{"COMPOUND": "COC(=O)C(=[N+]=[N-])C(=O)c1ccc([N+](=O)[O-])o1", "growth, %": 104}
{"COMPOUND": "CCOc1ccc2c(c1)/C(=C\\C=C\\C1CC(C)C3CC(OCC)CCC3N1CC)CC(C)N2CC (configuration not stated)", "growth, %": 19.5}
{"COMPOUND": "CCOC(=O)C1=NN(c2ccccc2)C(=O)/C1=C\\N1C(=O)/C(=C/c2cccc(O)c2)SC1=S", "growth, %": 107}
{"COMPOUND": "Nc1ccc(Oc2ccccc2)c(Cl)c1", "growth, %": 91.7}
{"COMPOUND": "CCC[CH2][Sn]1([CH2]CCC)[O]C2C(CO)OC(n3ccc(N)nc3=O)C2[O]1 (configuration not stated)", "growth, %": -64.2}
{"COMPOUND": "CC(=O)N1CC(=O)NC1=S", "growth, %": 101}
{"COMPOUND": "CCOC(=O)/C(=C\\c1ccc2ccccc2c1)P(=O)(OCC)OCC", "growth, %": 28.9}
{"COMPOUND": "Oc1c(Cl)cc(Cl)cc1C=NCC1CCC(CN=Cc2cc(Cl)cc(Cl)c2O)CC1 (configuration not stated)", "growth, %": 89.3}
{"COMPOUND": "NC1=C(Br)C(=O)c2ncccc2C1=O", "growth, %": -91.5}
